Hey, just so you know, these numbers are from patent US7183295B2.

- targetOrTestSystem: human PPARγ (182–505aa) ligand binding domain (Homo sapiens)
- Construct: γ(182–505aa); expressed in transfected cells; host or cells: COS-7
- Sequence (P37231 182-505): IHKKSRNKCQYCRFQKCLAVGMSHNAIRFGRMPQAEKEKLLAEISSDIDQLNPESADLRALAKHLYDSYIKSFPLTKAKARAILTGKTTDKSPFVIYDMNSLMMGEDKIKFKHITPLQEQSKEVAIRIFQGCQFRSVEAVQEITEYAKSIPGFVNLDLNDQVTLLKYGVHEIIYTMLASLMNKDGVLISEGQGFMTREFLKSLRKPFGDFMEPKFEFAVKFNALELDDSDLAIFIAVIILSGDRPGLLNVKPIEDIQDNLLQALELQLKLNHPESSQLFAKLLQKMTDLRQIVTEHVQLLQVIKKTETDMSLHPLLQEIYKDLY
- assayProcedure: PPAR transfection (Gal4-LBD luciferase reporter) assay, hPPARγ
- Format: cell-based
- appliedConditions: transfected COS-7 cells, 16 hours, luciferase activity; read-out: hPPAR; EC50 γ (agonist activity)
pEC50: −log10 of the molar value.
# pEC50 listing for each entry below
measurementName: pEC50

>  <compound>
CC(C)(Oc1cccc(CCN(CCOc2ccccc2)c2nc3ccccc3o2)c1)C(=O)O

>  <targetOrTestSystem>
human PPARγ (182–505aa) ligand binding domain (Homo sapiens)

>  <measurementQualifier>
=

>  <observed>
5.96

$$$$
>  <compound>
O=C(O)COc1cccc(CN(CCCOc2ccccc2)c2nc3ccccc3o2)c1

>  <targetOrTestSystem>
human PPARγ (182–505aa) ligand binding domain (Homo sapiens)

>  <measurementQualifier>
<

>  <observed>
4.00

$$$$
>  <compound>
CCC(Oc1cccc(CN(CCCOc2ccccc2)c2nc3ccccc3o2)c1)C(=O)O (centres unmarked)

>  <targetOrTestSystem>
human PPARγ (182–505aa) ligand binding domain (Homo sapiens)

>  <measurementQualifier>
<

>  <observed>
4.30

$$$$
>  <compound>
CC[C@@H](Oc1cccc(CN(CCCOc2ccccc2)c2nc3ccccc3o2)c1)C(=O)O

>  <targetOrTestSystem>
human PPARγ (182–505aa) ligand binding domain (Homo sapiens)

>  <measurementQualifier>
=

>  <observed>
6.04

$$$$
>  <compound>
CCC(Oc1cccc(CCN(CCCOc2ccccc2)c2nc3ccccc3o2)c1)C(=O)O (centres unmarked)

>  <targetOrTestSystem>
human PPARγ (182–505aa) ligand binding domain (Homo sapiens)

>  <measurementQualifier>
=

>  <observed>
5.82

$$$$
>  <compound>
CCC(Oc1cccc(CCN(CCOc2ccc(OC)cc2)c2nc3cc(F)ccc3o2)c1)C(=O)O (centres unmarked)

>  <targetOrTestSystem>
human PPARγ (182–505aa) ligand binding domain (Homo sapiens)

>  <measurementQualifier>
<

>  <observed>
4.00

$$$$
>  <compound>
COc1ccc(OCCCN(Cc2cccc(OC(C)(C)C(=O)O)c2)c2nc3ccccc3o2)cc1

>  <targetOrTestSystem>
human PPARγ (182–505aa) ligand binding domain (Homo sapiens)

>  <measurementQualifier>
<

>  <observed>
4.00

$$$$
>  <compound>
COc1ccc2oc(N(CCCOc3ccc(Cl)cc3)Cc3cccc(OC(C)C(=O)O)c3)nc2c1 (centres unmarked)

>  <targetOrTestSystem>
human PPARγ (182–505aa) ligand binding domain (Homo sapiens)

>  <measurementQualifier>
=

>  <observed>
5.85

$$$$
